Organism: Rattus norvegicus
Assay Procedure: Effective dose determined by suppression of high base-line self-stimulation in adult male hooded rats
Format: functional
In plain terms, low ED50, meaning strictly below 6 mg/kg, gives T, and everything else gives F.

>>> qualitative_label("O=C1NCN(c2ccccc2)C12CCN(CCCC(c1ccc(F)cc1)c1ccc(F)cc1)CC2")
"T"
>>> qualitative_label("Oc1nc2ccccc2n1C1CCN(CCCN(c2ccccc2)c2ccc(F)cc2)CC1")
"F"
>>> qualitative_label("OC1(c2ccc(Cl)cc2)CCN(CCCN(c2ccc(F)cc2)c2ccc(F)cc2)CC1")
"T"
>>> qualitative_label("Oc1nc2ccccc2n1C1CCN(CCCN(c2ccc(F)cc2)c2ccccc2F)CC1")
"F"
>>> qualitative_label("CN1CCN(C2=Nc3cc(Cl)ccc3Nc3ccccc32)CC1 [CLOZAPINE]")
"F"
>>> qualitative_label("Cc1cc2nc(O)n(C3CCN(CCCN(c4ccc(F)cc4)c4ccc(F)cc4)CC3)c2cc1C")
"F"
>>> qualitative_label("O=C1NCN(c2ccccc2)C12CCN(CCCN(c1ccc(F)cc1)c1cccc(Cl)c1)CC2")
"F"
>>> qualitative_label("O=C1NCN(c2ccccc2)C12CCN(CCCN(c1ccccc1)c1ccc(F)cc1)CC2")
"F"
>>> qualitative_label("O=C1NCN(c2ccccc2)C12CCN(CCCN(c1ccc(F)cc1)c1ccc(F)cc1)CC2")
"T"
>>> qualitative_label("Oc1nc2ccccc2n1C1=CCN(CCCN(c2ccc(F)cc2)c2ccc(F)cc2)CC1")
"T"
>>> qualitative_label("COc1ccccc1N1CCN(CCCN(c2ccc(F)cc2)c2ccc(F)cc2)CC1")
"T"
>>> qualitative_label("Oc1nc2ccccc2n1C1CCN(CCCN(c2ccccc2)c2ccccc2)CC1")
"F"
